TEST TARGET: Ataxin-2 (Homo sapiens) (UniProt Q99700)
Sequence (Q99700 whole entry): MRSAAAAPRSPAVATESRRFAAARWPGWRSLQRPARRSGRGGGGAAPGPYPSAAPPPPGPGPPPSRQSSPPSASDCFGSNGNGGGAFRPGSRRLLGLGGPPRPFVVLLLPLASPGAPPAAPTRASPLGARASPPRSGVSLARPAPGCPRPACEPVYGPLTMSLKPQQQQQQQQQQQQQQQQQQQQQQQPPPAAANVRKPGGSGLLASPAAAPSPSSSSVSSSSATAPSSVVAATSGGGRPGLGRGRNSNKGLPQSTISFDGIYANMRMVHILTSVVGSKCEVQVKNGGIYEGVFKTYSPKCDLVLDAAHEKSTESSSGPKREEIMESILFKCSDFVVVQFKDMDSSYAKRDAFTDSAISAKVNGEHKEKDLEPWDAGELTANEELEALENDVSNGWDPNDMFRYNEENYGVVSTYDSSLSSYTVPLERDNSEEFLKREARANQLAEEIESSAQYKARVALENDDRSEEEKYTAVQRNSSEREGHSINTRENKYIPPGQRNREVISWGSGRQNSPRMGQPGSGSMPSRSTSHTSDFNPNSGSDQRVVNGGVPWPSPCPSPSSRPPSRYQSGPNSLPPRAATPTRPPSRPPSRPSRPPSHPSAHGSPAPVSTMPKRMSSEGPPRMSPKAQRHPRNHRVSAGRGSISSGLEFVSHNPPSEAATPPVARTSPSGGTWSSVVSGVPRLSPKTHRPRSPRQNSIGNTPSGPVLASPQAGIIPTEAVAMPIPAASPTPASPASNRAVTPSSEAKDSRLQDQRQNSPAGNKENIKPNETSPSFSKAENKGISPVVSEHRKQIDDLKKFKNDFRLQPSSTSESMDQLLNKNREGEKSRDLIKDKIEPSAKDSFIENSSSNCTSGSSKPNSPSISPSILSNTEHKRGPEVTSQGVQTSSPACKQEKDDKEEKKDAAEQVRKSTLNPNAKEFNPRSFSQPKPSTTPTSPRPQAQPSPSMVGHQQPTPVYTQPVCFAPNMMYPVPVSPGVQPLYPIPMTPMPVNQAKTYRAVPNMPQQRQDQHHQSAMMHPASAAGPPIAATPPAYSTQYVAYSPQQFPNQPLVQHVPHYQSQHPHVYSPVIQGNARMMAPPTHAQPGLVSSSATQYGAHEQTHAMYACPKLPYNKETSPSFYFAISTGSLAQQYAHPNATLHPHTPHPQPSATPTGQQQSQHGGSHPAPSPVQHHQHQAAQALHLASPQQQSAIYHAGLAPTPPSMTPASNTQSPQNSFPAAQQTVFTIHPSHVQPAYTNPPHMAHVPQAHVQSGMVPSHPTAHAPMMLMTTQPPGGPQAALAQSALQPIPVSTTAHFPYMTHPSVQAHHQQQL
TEST SUMMARY: qHTS for Inhibitors of ATXN expression.
Assay type: functional
About 2,100 (0.53%) of roughly 400,000 compounds were called active. Roughly 14% stayed inconclusive and do not appear here. How the calls were made is not given here. For the sample, actives were picked, then their nearest neighbours and some compounds at random.
Outcomes: active, inactive

CCCOc1c(Br)cc(C2C3=C(CCCC3=O)N(C)C3=C2C(=O)CCC3)cc1OC : inactive
COc1cccc(-c2ccc3c(N)c(C(=O)NCc4ccc(Cl)cc4)sc3n2)c1 : inactive
O=C(Cn1cnc2ccccc21)N1CCN(S(=O)(=O)c2ccccc2)CC1 : inactive
COc1cc(OC)c(C(=O)OC(C)C(=O)Nc2cc(C(F)(F)F)ccc2Cl)cc1OC (stereo not given) : inactive
FC(F)Oc1ccc(/C=N/NC(=S)Nc2cc(C(F)(F)F)ccc2Cl)cc1 : active
CC(Sc1nc[nH]n1)C(=O)Nc1cc(C(F)(F)F)ccc1Cl (stereo not given) : inactive
COc1cccc(Nc2nc(N)c([N+](=O)[O-])c(NCc3ccccc3)n2)c1 : active
O=C(Cn1ncc(Cl)c(Cl)c1=O)N1CCN(S(=O)(=O)c2ccc3ccccc3c2)CC1 : active
CC(=O)N1CCN(S(=O)(=O)c2ccc(F)c(Cl)c2)CC1 : inactive
CC(=O)Nc1nc2n(n1)C(c1ccc(F)cc1)C=C(c1ccccc1)N2 (stereo not given) : inactive

###

TEST TARGET: Ataxin-2 (Homo sapiens)
TEST SUMMARY: qHTS for Inhibitors of ATXN expression.
Format: functional
The campaign covered roughly 400,000 compounds. About 2,100 (0.53%) were called active. Another 14% or so got no clear call; they are omitted. No rule for the calls is given here. The sample as a whole holds a higher share of actives than the screen did.
Outcomes: true (1) (active), false (0) (inactive)

O=C(/C(=C/c1ccc(Cl)cc1)c1nc2ccccc2[nH]1)c1ccccc1 : true (1)
O=C(O)C(=O)/C(=C\c1ccc(Cl)cc1)c1ccc2ccccc2n1 : false (0)
O=C(/C(=C\c1ccccc1)c1nc2ccccc2[nH]1)c1ccc(Cl)cc1 : true (1)
Cc1nn(C)cc1N1C(=O)c2cccc3c(N)ccc(c23)C1=O : false (0)
O=C(Nc1nc2n(n1)C(c1ccccc1)C=C(c1ccccc1)N2)c1ccccc1 (stereo not given) : false (0)

###

TEST TARGET: Ataxin-2 (Homo sapiens)
TEST SUMMARY: qHTS for Inhibitors of ATXN expression.
Format: functional
In all, about 400,000 compounds went through this assay and about 2,100 (0.53%) were called active. Roughly 14% stayed inconclusive and do not appear here. How the calls were made is not given here. The entries come from a sample that favours actives as a whole.
Outcomes: true for active, false for inactive

Cc1ccc(/C(=N/Nc2nc3ccccc3s2)C2=C(O)c3ccccc3C2=O)cc1 : false
CCSc1nnc2nc3c(c(O)n12)C1(CCCC1)Cc1ccccc1-3 : false
C[C@H](CO)N1C[C@H](C)[C@@H](CN(C)S(=O)(=O)c2ccc(-c3ccccc3)cc2)OCc2cn(nn2)CCCC1=O : false
CO/N=C(\Cn1ncc(N2CCOCC2)c(Br)c1=O)c1ccc(Cl)cc1 : false
CC(C)Cn1nc(NC(=O)c2cccs2)c2cc3ccccc3nc21 : false
COc1ccc(-c2cc(C(=O)Nc3cc(S(N)(=O)=O)ccc3C)c3ccccc3n2)cc1OC : false
Cc1cccc(/N=c2\oc3cc(O)ccc3cc2C(N)=O)c1 : false
COc1ccc(NC(=O)N(C)[C@H]2C[C@H]3c4[nH]c5ccc(-c6ccc(OC)cc6)cc5c4CCN3C[C@H]2[C@H](C)O)cc1 : true
C[C@H]1CN([C@@H](C)CO)C(=O)Cc2cc(NC(=O)CCC(F)(F)F)ccc2O[C@H]1CN(C)Cc1ccc(-c2ccccc2)cc1 : true
COc1cc(N=Nc2cccc(S(N)(=O)=O)c2)c2ccccc2c1N : true
Cc1noc(C)c1S(=O)(=O)Nc1ccc(C(C)C)cc1 : false
COc1cccc(S(=O)(=O)N(C)C[C@@H]2OCc3cnnn3CCCC(=O)N([C@@H](C)CO)C[C@H]2C)c1 : false
CC(C)NC(=O)Nc1ccc2c(c1)C(=O)N([C@H](C)CO)C[C@H](C)[C@@H](CN(C)Cc1ccc(C(F)(F)F)cc1)OCCCC[C@H](C)O2 : true
COc1ccc(NC2=C(C(C)=O)C(c3ccc(OC)cc3)C(C(C)=O)C(C)(O)C2)cc1 (centres undefined) : false
CCOC(=O)c1cc2c(=O)n3ccccc3nc2n(Cc2ccco2)/c1=N\C(=O)c1ccccc1Br : false
CN[C@H]1C[C@H]2c3[nH]c4ccc(-c5cccc(C)c5)cc4c3CCN2C[C@H]1[C@H](C)O : true
CCOC(=O)N(C)[C@H]1C[C@H]2c3[nH]c4ccccc4c3CCN2C[C@H]1[C@H](C)O : false
Cc1snc(SCC(=O)c2ccc(F)cc2)c1C#N : false
Cc1ccc(O)c(-c2n[nH]c3c2C(c2ccccc2F)N(Cc2ccco2)C3=O)c1 (centres undefined) : true

###

TEST TARGET: Ataxin-2 (Homo sapiens) (UniProt Q99700)
TEST SUMMARY: qHTS for Inhibitors of ATXN expression.
Assay type: functional
In all, about 400,000 compounds went through this assay and about 2,100 (0.53%) were called active. Another 14% or so got no clear call; they are omitted. No rule for the calls is given here. The sample as a whole holds a higher share of actives than the screen did.
Outcomes: 1 (yes) for active, 0 (no) for inactive

COc1ccc(S(=O)(=O)NCC2CCCN(C(=O)c3cccnc3)C2)cc1 (stereo not given) : 0 (no)
COc1cc(NC(=O)C2CC(c3cccc(Br)c3)=NO2)cc(OC)c1OC (stereo not given) : 0 (no)
O=C1C=C(C#Cc2ccc(Oc3ccccc3)cc2)C[C@@H](c2ccc(F)cc2)C1 : 1 (yes)
O=c1c2ccccc2oc2cc(NCCCN3CCOCC3)ccc12 : 0 (no)
COc1ccc(N2C(c3ccsc3)=Cc3cc4c(cc3C2c2c[nH]c3ccccc23)OCO4)cc1 (stereo not given) : 1 (yes)
CC(=O)Nc1ccc(N/C=C(\C=O)c2nc3ccccc3o2)cc1 : 0 (no)
O=C(NCC1CCCCC1)C1(CC2CC(c3ccc(Cl)cc3)=NO2)CCNCC1 (stereo not given) : 1 (yes)
Cc1cc(C(F)(F)F)c(C#N)c(SCC(=O)Nc2nc3cc(Br)ccc3s2)n1 : 0 (no)
O=C1c2cccc3c(O)ccc(c23)C(=O)N1c1ccc(Cl)cc1 : 0 (no)
CN(C)c1ccc(C2C3CCCc4ccccc4C3=NN2C)cc1 (stereo not given) : 0 (no)

###

TEST TARGET: Ataxin-2 (Homo sapiens) (UniProt Q99700)
TEST SUMMARY: qHTS for Inhibitors of ATXN expression.
Assay type: functional
About 2,100 (0.53%) of roughly 400,000 compounds were called active. Roughly 14% stayed inconclusive and do not appear here. The rule behind the calls is not given here. The entries come from a sample that favours actives as a whole.
Outcomes: yes for active, no for inactive

O=[N+]([O-])c1ccc(Cc2ccccn2)c([N+](=O)[O-])c1 : no
N#CC1=C(N)Oc2c(oc(CO)cc2=O)C1c1ccccc1[N+](=O)[O-] (stereo unspecified) : no
O=[N+]([O-])c1ccc(Sc2ccncn2)c([N+](=O)[O-])c1 : yes
NC(Cc1ccc([N+](=O)[O-])cc1)=NOC(=O)c1cccc(Br)c1 : no
Cn1c(=O)c2c(nc(NCc3ccccc3)n2Cc2ccc(Cl)c(Cl)c2)n(C)c1=O : yes
CCCCN(C)CCCNC(=O)C1CCN(c2nc3ccc(CC)cc3s2)CC1 : yes
COC1=CC(=O)C(C2CC(=O)c3c(O)cc(O)cc3O2)=CC1=O (stereo unspecified) : yes
CCOc1ncccc1C(=O)N(CC)CC(=O)NCc1ccc(Cl)cc1 : no
O=C(CN1C(=O)c2ccccc2C1=O)NCc1ccc(N2CCOCC2)cc1 : no
C/C(=N\NC(=O)COc1ccccc1-c1ccccc1)c1ccccn1 : yes
COc1c(C)cc(S(=O)(=O)NCc2ccco2)c(C)c1C : no
CCOc1ccc(-n2cc(C(=O)c3cc(Cl)ccc3O)cc(C#N)c2=O)cc1 : no
COc1cc2ccc(=O)oc2c(O)c1OCC=C(C)C : no
O=C(Nc1ccccc1F)C(=Cc1sc(N2CCOCC2)nc1-c1ccccc1)C(=O)Nc1ccccc1F : no
O=C(NCc1ccco1)c1cc2ccc(O)cc2oc1=O : no
COCCCn1c(=N)c(C(=O)NC2CCCCC2)cc2c(=O)n3ccccc3nc21 : no
NC(Cc1ccc([N+](=O)[O-])cc1)=NOC(=O)C(c1ccccc1)c1ccccc1 : yes
Cc1ccc(S(=O)(=O)Nc2cc(C)c(O)c(Sc3nnc(C)[nH]3)c2)cc1 : no
CCOc1ccc2nc(N3CCC(C(=O)N4CCN(c5ncccn5)CC4)CC3)sc2c1 : no
CCOC(=O)C(C(=O)c1ccccc1)C(c1ccccc1)c1nccc2ccccc12 (stereo unspecified) : no
CCC1CCCCN1Cc1nc2c(c(=O)n(C)c(=O)n2C)n1CCCc1ccccc1 (stereo unspecified) : no
NC(S)=NN=C1c2cc(OCCN3CCOCC3)ccc2-c2ccc(OCCN3CCOCC3)cc21 : yes
CCOC(=O)c1cc2c(=O)n3ccccc3nc2n(CCOC)/c1=N/C(=O)c1c(-c2c(F)cccc2Cl)noc1C : no
Cc1ccc(NC(=O)/C(C#N)=C/c2cn(CC(=O)NCc3ccco3)c3ccccc23)cc1C : no
CC(C)(C)CC(C)(C)NCC(O)COCCOc1ccc(Br)cc1 (stereo unspecified) : yes
CCCCNC(=O)C1(NC(=O)Nc2ccccc2)CCCCC1 : no
COc1cc(/C=C(/C#N)C(=O)NCCCc2ccccc2)ccc1OCC(=O)O : no
CCOc1ccc(OCCOc2ccc(/C=C/C(=O)O)cc2OCC)cc1 : no
NC(=O)c1ccsc1NC(=O)Cc1ccc([N+](=O)[O-])cc1 : no
CC(=O)Nc1ccc(NC(=O)COC(=O)c2ccccn2)cc1 : no
CCOc1ccc(/C=C/C(=O)c2cc(Br)ccc(=O)c2O)cc1 : yes
CCCCNC(=O)C[C@@H]1C[C@@]2(C(=O)OC)CCCCC=C2N(CCC2=CCCCC2)C1=O : yes
Cc1cc(C)c(C#N)c(SCC(=O)C2CC2)n1 : no
CC(C)n1nc(C(=O)NNC(=O)c2ccc(OC(F)F)cc2)c2ccccc2c1=O : no
Cc1ccc(-c2nc3n(n2)C(c2ccccc2C)C=C(c2ccc(Cl)cc2)N3)cc1 (stereo unspecified) : no
C#CCOCCOCCOCCNc1nc(N2CCOCC2)nc(N2CCN(C(=O)[C@H]([C@@H](C)CC)n3cc([C@@H](N)Cc4ccc(O)cc4)nn3)CC2)n1 : yes
C#CCOCCOCCOCCNc1nc(N2CCN(C(=O)CCCCCCCCCCNC(=O)Cn3cc(CCCCCN)nn3)CC2)nc(N2CCN(C(=O)CCCCCCCCCCNC(=O)[C@@H]([C@H](C)O)n3cc(C)nn3)CC2)n1 : yes
Cc1nc2nc(SCC(=O)O)nn2c(C)c1Cc1ccccc1Cl : no
CC(C)OCCCn1/c(=N/C(=O)c2cccs2)c(C#N)cc2c(=O)n3ccccc3nc21 : no
O=c1c2nccnc2[nH]c(=S)n1Cc1ccccc1Cl : no
CCN=c1ccc(Br)cc(C(=O)/C=C/c2ccc(Cl)cc2)c1O : yes

The origin of these recorded values is ChEMBL document CHEMBL1201862.
